// IC50 lookup, one value per entry
target: GABAA receptor; experiment: Steroid inhibition of [35S]-TBPS binding, rat brain cortical membranes; settings: 3 nM [35S]-TBPS, in the presence of 5 mM GABA

INSERT INTO measurements (molecule, measured_on, recorded_result) VALUES
  ('COC[C@@]1(O)CC[C@@]2(C)[C@H](CC[C@@H]3[C@@H]2CC[C@@]2(C)[C@H]3CC[C@@H]2[C@](C)(Cn2cc(C#N)cn2)OC)C1', 'GABAA receptor', '100 to 1000 nM');

Value of measured IC50 for the entry `C[C@@]1(O)CC[C@H]2[C@H](CC[C@@H]3[C@@H]2CC[C@@]2(C)[C@H]3CC[C@@H]2[C@](C)(O)Cn2cc(C#N)cn2)C1` : < 100 nM

The compound listed as `CC[C@]12CC[C@](O)(COC)C[C@H]1CC[C@H]1[C@@H]3CC[C@H]([C@@](C)(O)Cn4cc(C#N)cn4)[C@@]3(C)CC[C@@H]12` shows IC50 equal to < 100 nM

// field: IC50; key: `CCC[C@@]1(O)CC[C@H]2[C@H](CC[C@@H]3[C@@H]2CC[C@@]2(C)[C@H]3CC[C@@H]2[C@](C)(Cn2cc(C#N)cn2)OC)C1` ; value = 100 to 1000 nM

Memo: `CCC[C@@]1(O)CC[C@@]2(CC)[C@H](CC[C@H]3[C@@H]4CC[C@H]([C@@](C)(O)Cn5cc(C#N)cn5)[C@@]4(C)CC[C@@H]32)C1` , reported IC50: 100 to 1000 nM

---

target: GABAA receptor; assay: Steroid inhibition of [35S]-TBPS binding, rat brain cortical membranes; settings: 3 nM [35S]-TBPS, in the presence of 5 mM GABA
recorded-metric: IC50

INSERT INTO assay_data (compound, recorded_metric, recorded_result) VALUES
  ('CCOC[C@@]1(O)CC[C@@]2(C)[C@H](CC[C@@H]3[C@@H]2CC[C@@]2(C)[C@H]3CC[C@@H]2[C@](C)(O)Cn2cc(C#N)cn2)C1', 'IC50', '< 100 nM'),
  ('C[C@@]1(O)CC[C@H]2[C@H](CC[C@@H]3[C@@H]2CC[C@@]2(C)[C@H]3CC[C@@H]2[C@@](C)(O)Cn2cc(C#N)cn2)C1', 'IC50', '< 100 nM'),
  ('CC(C)(Cn1cc(C#N)cn1)[C@H]1CC[C@H]2[C@@H]3CC[C@@H]4C[C@](C)(O)CC[C@@H]4[C@H]3CC[C@]12C', 'IC50', '< 100 nM');

Short answer for `CCC[C@@]1(O)CC[C@H]2[C@@H](CC[C@@H]3[C@@H]2CC[C@@]2(C)[C@H]3CC[C@@H]2[C@@](C)(O)Cn2cc(C#N)cn2)C1` : IC50 was ≥ 1000 nM

Per the record, `C[C@@]1(O)CC[C@H]2[C@H](CC[C@@H]3[C@@H]2CC[C@@]2(C)[C@H]3CC[C@@H]2[C@](C)(C#N)Cn2cc(C#N)cn2)C1` has IC50 of < 100 nM

---

Listed below: pIC50 values for each entry.
biological target: GABAA receptor; test: Steroid inhibition of [35S]-TBPS binding, rat brain cortical membranes; conditions: 3 nM [35S]-TBPS, in the presence of 5 mM GABA
pIC50: −log10 of the molar value.

# example entries with known answers
INSERT INTO assay_data (compound, recorded_metric, recorded_result) VALUES
  ('CCC[C@@]1(O)CC[C@H]2[C@H](CC[C@@H]3[C@@H]2CC[C@@]2(C)[C@H]3CC[C@@H]2[C@@](C)(O)Cn2cc(C#N)cn2)C1', 'pIC50', '6.00 to 7.00'),
  ('CCOC[C@@]1(O)CC[C@@]2(C)[C@H](CC[C@@H]3[C@@H]2CC[C@@]2(C)[C@H]3CC[C@@H]2[C@@](C)(O)Cn2cc(C#N)cn2)C1', 'pIC50', '6.00 to 7.00'),
  ('C[C@@H]1C[C@H]2[C@H](CC[C@@H]3[C@@H]2CC[C@@]2(C)[C@H]3CC[C@@H]2[C@](C)(O)Cn2cc(C#N)cn2)C[C@]1(C)O', 'pIC50', '> 7.00'),
  ('CCC[C@@]1(O)CC[C@@]2(C)[C@H](CC[C@@H]3[C@@H]2CC[C@@]2(C)[C@H]3CC[C@@H]2[C@](C)(O)Cn2cc(C#N)cn2)C1', 'pIC50', '> 7.00'),
  ('CO[C@@H]1C[C@H]2[C@H](CC[C@@H]3[C@@H]2CC[C@@]2(C)[C@H]3CC[C@@H]2[C@](C)(O)Cn2cc(C#N)cn2)C[C@]1(C)O', 'pIC50', '> 7.00');

Sure, the documented pIC50 for `C[C@H]1C[C@H]2[C@H](CC[C@@H]3[C@@H]2CC[C@@]2(C)[C@H]3CC[C@@H]2[C@@](C)(O)Cn2cc(C#N)cn2)C[C@]1(C)O` is > 7.00

Field pIC50 (entry `C[C@@H]1C[C@H]([C@](C)(O)Cn2cc(C#N)cn2)[C@@]2(C)CC[C@H]3[C@@H](CC[C@@H]4C[C@](C)(O)CC[C@@H]43)[C@H]12` ) reads > 7.00
